protocol-description: Serum fatty acid metabolomics (UPLC-MS/MS), feeding study
test-conditions: in vivo
test-readout: serum concentration 12 wk / 0 wk

Below: 5 compounds and their reported serum concentration 12 wk / 0 wk.
CC/C=C\C/C=C\C/C=C\CCCCCCCCCCCC(=O)O [docosatrienoate (22:3n3), docosatrienoate]; 2.06
C=CCCCCCCCCC(=O)O [10-undecenoate (1 l:ln1), 10-undecenoate]; 1.54
CCCCCCC=CCCCC(=O)O [5-dodecenoate (12:ln7), 5-dodecenoate]; 1.67
CCCCCCCC/C=C\CCCCCCCCCCCCCC(=O)O [nervonate (24:ln9)*, nervonate]; 1.41
CCCCCCC=CCCCCCCCCC(=O)O [10-heptadecenoate (17:ln7), 10-heptadecenoate]; 1.38

a. CCCCC/C=C\C/C=C\C/C=C\C/C=C\CCCCCC(=O)O [adrenate (22:4n6), all-cis-7,10,13,16-docosatetraenoic acid]
b. CCCCC/C=C\C/C=C\CCCCCCCCCC(=O)O [dihomo-linoleate (20:2n6), dihomo-linoleate]
Request: Please indicate which item has the smaller measured serum concentration 12 wk / 0 wk: a versus b // output: label of the selected item
Result: b
(b: 1.12, a: 2.17)
